Molecular target: T1, TNFR1 on MRC-5 cells (UniProt P19438 30-455, limits assumed)
T1 sequence (looked up): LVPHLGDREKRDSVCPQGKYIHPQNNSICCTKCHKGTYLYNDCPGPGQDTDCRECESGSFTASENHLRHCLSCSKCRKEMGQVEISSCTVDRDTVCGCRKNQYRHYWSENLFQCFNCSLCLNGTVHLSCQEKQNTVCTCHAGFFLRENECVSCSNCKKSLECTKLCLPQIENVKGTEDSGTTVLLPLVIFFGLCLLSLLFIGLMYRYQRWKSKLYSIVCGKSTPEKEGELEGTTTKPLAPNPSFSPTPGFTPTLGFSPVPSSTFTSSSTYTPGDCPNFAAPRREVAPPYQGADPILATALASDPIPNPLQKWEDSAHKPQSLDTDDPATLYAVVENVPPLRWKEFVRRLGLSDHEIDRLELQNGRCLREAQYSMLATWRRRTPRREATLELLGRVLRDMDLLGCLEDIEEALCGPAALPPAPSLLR
Assay: cell-based or functional assay
value_type: ND50 nM, MRC-5 cell-based assay (230307CE) (nM)

binder	readout_units	value_reported
DOM1h-131-206 (other, human VH dAb against TNFR1; also called GSK1995057A) VH: EVQLLESGGGLVQPGGSLRLSCAASGFTFAHETMVWVRQAPGKGLEWVSHIPPDGQDPFYADSVKGRFTISRDNSKNTLYLQMNSLRAEDTAVYHCALLPKRGPWFDYWGQGTLVTVSS	nM	0.71
DOM1h-131-511 (other, human VH domain antibody (dAb) against TNFR1; also called GSK1995056A) VH: EVQLLESGGGLVQPGGSLRLSCAASGFTFAHETMVWVRQAPGKGLEWVSHIPPVGQDPFYADSVKGRFTISRDNSKNTLYLQMNSLRAEDTAVYYCALLPKRGPWFDYWGQGTLVTVSS	nM	1.89
DOM1h-131-204 (other) VH: EVQLSESGGGLVQPGGSLRLSCAASGFTFAHETMVWVRQAPGKGLEWVSHIPPDGQDPFYADSVKGRFTISRDNSKNTLYLQMNSLRAEDTAVYYCALLPNRGPWFDYWGQGTLVTVSS	nM	1.89
DOM1h-131-203 (other) VH: EVQLWESGGGLVQPGGSLRLSCAASGFTFAHETMVWVRQAPGKGLEWVSHIPPDGQDPFYADSVKGRFTISRDNSKNTLYLQMNSLRAEDTAVYYCALLPKRGPWIDYWGQGTLVTVSS	nM	2.28

This collection of values is drawn from patent US20100260763A1.
